We begin with a simple list: items and their reported hEPO 6 Hr (ng/ml) Mean.
# Test system: BALB/cJ mice
# Experiment description: Delivery of hEPO mRNA by intramuscular administration of LNPs; serum hEPO by ELISA
# Format: in vivo, Mouse
# Assay context: Table 4, further lipids; mouse serum 6 hours post IM injection of hEPO mRNA LNP as in example 3
Enter your answer as a number in ng/mL; do not include the unit.

Illustrative cases are given below, each with its answer.
CCCCCCCCC(O)CN(CCCC(=O)N[C@H]1CO[C@H]2[C@@H]1OC[C@@H]2NC(=O)CCCN(CC(O)CCCCCCCC)CC(O)CCCCCCCC)CC(O)CCCCCCCC (some centres unmarked): 47.6
CCCCCCCCC(O)CN(CCCOC(=O)O[C@@H]1CO[C@H]2[C@@H]1OC[C@H]2OC(=O)OCCCN(CC(O)CCCCCCCC)CC(O)CCCCCCCC)CC(O)CCCCCCCC (some centres unmarked): 21.2
CCCCCCCCCCC(O)CN(CCCSC(=O)N[C@H]1CO[C@H]2[C@@H]1OC[C@@H]2NC(=O)SCCCN(CC(O)CCCCCCCCCC)CC(O)CCCCCCCCCC)CC(O)CCCCCCCCCC (some centres unmarked): 12.0
CCCCCCCCCCCOC(=O)CCCC(O)CN(CCCC(=O)O[C@@H]1CO[C@H]2[C@@H]1OC[C@H]2OC(=O)CCCN(CC(O)CCCCCOC(=O)C(CCCCCCCC)CCCCCCCC)CC(O)CCCC(=O)OCCCCCCCCCCC)CC(O)CCCCCOC(=O)C(CCCCCCCC)CCCCCCCC (some centres unmarked): 34.4

hEPO 6 Hr (ng/ml) Mean lookup needed for CCCCCC/C=C\COC(=O)CCCCCCCN(CCCCCCCC(=O)OC/C=C\CCCCCC)CCCC(=O)N[C@H]1CO[C@H]2[C@@H]1OC[C@@H]2NC(=O)CCCN(CCCCCCCC(=O)OC/C=C\CCCCCC)CCCCCCCC(=O)OC/C=C\CCCCCC , thanks.
2.1

hEPO 6 Hr (ng/ml) Mean lookup needed for CCCCCCCCCCCCC(O)CN(CCCCC(=O)SC1CO[C@@H]2C(SC(=O)CCCCN(CC(O)CCCCCCCCCCCC)CC(O)CCCCCCCCCCCC)CO[C@H]12)CC(O)CCCCCCCCCCCC (some centres unmarked) , thanks.
8.0

hEPO 6 Hr (ng/ml) Mean lookup needed for CCCCCCCCCCC(O)CN(CCCOC(=O)O[C@@H]1CO[C@H]2[C@@H]1OC[C@H]2OC(=O)OCCCN(CC(O)CCCCCCCCCC)CC(O)CCCCCCCCCC)CC(O)CCCCCCCCCC (some centres unmarked) , thanks.
31.7

hEPO 6 Hr (ng/ml) Mean lookup needed for CCCCCCCCCCC(O)CN(CCCCS[C@H]1CO[C@H]2[C@@H]1OC[C@@H]2SCCCCN(CC(O)CCCCCCCCCC)CC(O)CCCCCCCCCC)CC(O)CCCCCCCCCC (some centres unmarked) , thanks.
2.1

hEPO 6 Hr (ng/ml) Mean lookup needed for CCCCCCCCCCC(O)CN(CCCCCC(=O)O[C@@H]1CO[C@H]2[C@@H]1OC[C@@H]2OC(=O)CCCCN(CC(O)CCCCCCCCCC)CC(O)CCCCCCCCCC)CC(O)CCCCCCCCCC (some centres unmarked) , thanks.
34.4

hEPO 6 Hr (ng/ml) Mean lookup needed for CCCCCCCCCCC(O)CN(CCCC(=O)N[C@H]1CO[C@H]2[C@@H]1OC[C@@H]2NC(=O)CCCN(CC(O)CCCCCCCCCC)CC(O)CCCCCCCCCC)CC(O)CCCCCCCCCC (some centres unmarked) , thanks.
72.7

hEPO 6 Hr (ng/ml) Mean lookup needed for CCCCCCCCCCCOC(=O)CCCC(O)CN(CCCC(=O)O[C@H]1CO[C@H]2[C@@H]1OC[C@H]2OC(=O)CCCN(CC(O)CCCCCOC(=O)C(CCCCCCCC)CCCCCCCC)CC(O)CCCC(=O)OCCCCCCCCCCC)CC(O)CCCCCOC(=O)C(CCCCCCCC)CCCCCCCC (some centres unmarked) , thanks.
36.2

hEPO 6 Hr (ng/ml) Mean lookup needed for CCCCCCCCCCCCC(O)CN(CCCC(=O)N[C@H]1CO[C@H]2[C@@H]1OC[C@@H]2NC(=O)CCCN(CC(O)CCCCCCCCCCCC)CC(O)CCCCCCCCCCCC)CC(O)CCCCCCCCCCCC (some centres unmarked) , thanks.
30.9

hEPO 6 Hr (ng/ml) Mean lookup needed for CCCCCCCCCCCOC(=O)CCCCCN(CCCCCCCC(=O)OC(CCCCCCCC)CCCCCCCC)CCCCSC(=O)N[C@H]1CO[C@H]2[C@@H]1OC[C@@H]2NC(=O)SCCCCN(CCCCCCCC(=O)OC(CCCCCCCC)CCCCCCCC)CCCCCC(=O)OCCCCCCCCCCC (stereo in doubt) , thanks.
22.1

Every entry's value here was drawn from patent US20260224486A1.
